Test system: PfAP2-G AP2 domain (GST-tagged)
ASSAY PROCEDURE: gcPBM binding intensity (ln(normalized median fluorescence intensity)); higher = stronger DNA binding
In all, about 25,000 sequences were measured (“ln(normalized median fluorescence intensity)”: median about 10, highest 2% from about 12 on). The sample holds the highest values, similar sequences and a random draw of the others, so the mix is not that of the screen.
Reported values of gcPBM binding intensity (ln) for individual entries
# print the numeric value only

Here is how some sequences turned out for gcPBM binding intensity (ln).
[[record]]
seq = "TGGAATAATCCGCGTACACACATATATATATTAAGA [CACACA_site4253]"
obs_value = 11.6

[[record]]
seq = "TATGGAATAATACGCGTACACACATATATATATTAA [CACACA_site132]"
obs_value = 11.6

[[record]]
seq = "GAATAATATGGACATACACACATATACATACATATA [CACACA_site2114]"
obs_value = 10.9

[[record]]
seq = "ATATGGAATAATACGCGTACACACATATATATATTA [XGTACX_site307]"
obs_value = 11.7


Now, please, on to the next sequence.
Request: gcPBM binding intensity (ln), test system PfAP2-G AP2 domain (GST-tagged), entry TTAAAAATTATGGATACACACATATATATATATATT [CACACA_site2383]
10.2

====

Measured gcPBM binding intensity (ln), listed per entry for reference.
Test system: PfAP2-G AP2 domain (GST-tagged)
ASSAY PROCEDURE: gcPBM binding intensity (ln(normalized median fluorescence intensity)); higher = stronger DNA binding
Over roughly 25,000 sequences, “ln(normalized median fluorescence intensity)” has its median near 10; the highest 2% begin near 12. Many of the other results were omitted from the sample, so the highest values are more common in it than they were.
Please reply with the number alone, leaving off any unit.

[[record]]
seq = "AAGTTTTATTTAAATTGTACTAAAATTTTTATATTA [XGTACX_site7065]"
subject_of_test = "PfAP2-G AP2 domain (GST-tagged)"
test_readout = "gcPBM binding intensity (ln)"
obs_value = 11

[[record]]
seq = "CCTTATACGATATTATGTACGCATATGTGCATTTTT [XGTACX_site1570]"
subject_of_test = "PfAP2-G AP2 domain (GST-tagged)"
test_readout = "gcPBM binding intensity (ln)"
obs_value = 11.5

[[record]]
seq = "AAGAAATATATATATATATATATATATATATATGTA [TGCATGCA_negctrl_site442]"
subject_of_test = "PfAP2-G AP2 domain (GST-tagged)"
test_readout = "gcPBM binding intensity (ln)"
obs_value = 9.67


API: value(readout=gcPBM binding intensity (ln), system=PfAP2-G AP2 domain (GST-tagged)) for record ATATATATATATATATGTACATATATTTTTATTTAT [XGTACX_site3508]
11.2

Would you kindly repeat that for `TTTTTTTTGCGTACAGTGCAAATTTATTTACTATTC` ?
11.7

# repeat for ATATTAAATATAATTTGTACGCATTTTTTTTTTTTT [XGTACX_site1910]
11.5

Record: GAATTATAAGAATAAACACACAAGCTTAAAAAAAAA [CACACA_site1204]
9.74

Same lookup for AATAATAAATTATGGTGTACGCATTTGTATATATAC [XGTACX_site5417] , please.
11.7

Entry to check: AATTAATAAGAAAGGTGTACAGAAAAAAAAAAATAT [XGTACX_site2106]
11.5

Would you kindly repeat that for TTTTTTTCTTTTTGAGGTACGCATTATTTTATTTGT [XGTACX_site6996] ?
11.3

Also ACAGAAAATAAAATTTGTACATATATAGAATAAAGA [XGTACX_site3014] ?
10.8

Same lookup for ACATTAAAAAAAAAATGTACATAAATATTTTTCCTT [XGTACX_site4361] , please.
11.1

Item: AGAAAAATTATTTTGCGTACATATTTACAATAAAAA [XGTACX_site2144]
11.5

Similarly, CCTAAAAAAAAGAAATGATATACATATGTATATATA [GTGCAC_negctrl_site100] ?
9.69

Can you handle AAAAAAAAAAAAAGGTGTACATGCAAAATAAATTCT [XGTACX_site4592] next?
11.6

How about AAAAATATAATATAATGTACACAAAAAAAAAAAAAT [XGTACX_site4914] ?
11.6

====

Test system: PfAP2-G AP2 domain (GST-tagged)
ASSAY PROCEDURE: gcPBM binding intensity (ln(normalized median fluorescence intensity)); higher = stronger DNA binding
The full ranking holds about 25,000 sequences; the median of “ln(normalized median fluorescence intensity)” is about 10, and the highest 2% start at about 12. What follows is part of a selection rich in the highest values, with near analogues and random picks from the rest.
Property: gcPBM binding intensity (ln); scope: individual sequences
Give a plain numeric answer without units written out.

Consider the reported gcPBM binding intensity (ln) for these sequences:
[[record]]
seq = "TATATTTTATAAAAAAGTACACATGAAAATGTATTT [XGTACX_site5889]"
obs_value = 11.5

[[record]]
seq = "GTAATTTTAAAGAAAAGTACACATTTATTAATTATT [XGTACX_site4468]"
obs_value = 11.5


Recorded gcPBM binding intensity (ln) for AAAAAAAAAAAAAAAAGTACACATCATTTTATGAAA [XGTACX_site1402] , please?
11.7

Also, ATTTATGAAAAGTAAAGTACACACAGGAAAAAAAAA [XGTACX_site3564] please.
11.4

Item: AATTATTTTATGAAAAGTACACATTGTTTTAATTCT [XGTACX_site4506]
11.4

Now consider TATTTATACATACGTACACACAAATATTAAAATATA [CACACA_site7004] and answer again.
11.5

Could you do the same for TTTTAAAGAAAAAAATGTACAAAATTTTTATTTTAA [XGTACX_site1496] , please?
10.6

What would you report for TTTATTTATTTTTAACGTACGCACACATATAAATAT [XGTACX_site4042] ?
11.4

Input TTTTTTATTAAAAGTAGTACACATGAAAAAAAAAAA [XGTACX_site5524]
11.8

====

Tested on: PfAP2-G AP2 domain (GST-tagged)
ASSAY PROCEDURE: gcPBM binding intensity (ln(normalized median fluorescence intensity)); higher = stronger DNA binding
In all, about 25,000 sequences were measured (“ln(normalized median fluorescence intensity)”: median about 10, highest 2% from about 12 on). The sample as a whole holds a higher share of the highest values than the screen did.
TEST READOUT: gcPBM binding intensity (ln)
Just the number, please.

Sample answers from the record:
[[record]]
seq = "AATTAAAAAAAATACACACACACATACACATATATA [CACACA_site3298]"
obs_value = 10.2

[[record]]
seq = "AGGAGGTCAGTTCACAGTACCCAGAAACTCTACGAG [XGTACX_site2006]"
obs_value = 11.1

[[record]]
seq = "GATTATTATTATAAGGGTACAAATATTTAATAAAAA [XGTACX_site7144]"
obs_value = 11

[[record]]
seq = "TATATAATATTACGTTGTACACTTTAATCTCCCTTC [XGTACX_site5577]"
obs_value = 11.1


Can you look up the measured gcPBM binding intensity (ln) of CAATAAAAATTAAAATGTACAAATAAATATAAATAT [XGTACX_site7265] for me?
10.8

====

We begin with a simple list: items and their reported gcPBM binding intensity (ln).
Test system: PfAP2-G AP2 domain (GST-tagged)
ASSAY PROCEDURE: gcPBM binding intensity (ln(normalized median fluorescence intensity)); higher = stronger DNA binding
The full ranking holds about 25,000 sequences; the median of “ln(normalized median fluorescence intensity)” is about 10, and the highest 2% start at about 12. Only a selection was taken, and the highest values are over-represented in it overall.
Answer with the value's number alone.

Known results for sequences:
[[record]]
seq = "TGTACAACAATTTTTGCACACACCAAAACATAAAAT [CACACA_site1598]"
obs_value = 11.1

[[record]]
seq = "ATAAAGTATATTATATGTACATATATATATTATATA [XGTACX_site1345]"
obs_value = 11.1

[[record]]
seq = "AAAAAAAAATATATATATATATATATAAATAAATTT [CACACA_negctrl_site519]"
obs_value = 9.31

[[record]]
seq = "TTTGCCCAAAAAGGTACACACCACAATGTACATAAA [CACACA_site4599]"
obs_value = 11.9

[[record]]
seq = "CACACCACCAACAAAAGTACATACATATATATATAT [XGTACX_site5781]"
obs_value = 11.3


Endpoint output: gcPBM binding intensity (ln) of TTATAAATATAATATTGTACAAAATTTTAACATGTC [XGTACX_site5259] . Value?
10.9

Entry AAACATGATTATTATAGTACAATTATAATTATTATA [XGTACX_site2590] please
10.8

Origin of the recorded values: the supplement of paper PMC11417369
